Test Target: CDK10/Cyclin L2 (Homo sapiens)
Sequence (Q15131 whole entry): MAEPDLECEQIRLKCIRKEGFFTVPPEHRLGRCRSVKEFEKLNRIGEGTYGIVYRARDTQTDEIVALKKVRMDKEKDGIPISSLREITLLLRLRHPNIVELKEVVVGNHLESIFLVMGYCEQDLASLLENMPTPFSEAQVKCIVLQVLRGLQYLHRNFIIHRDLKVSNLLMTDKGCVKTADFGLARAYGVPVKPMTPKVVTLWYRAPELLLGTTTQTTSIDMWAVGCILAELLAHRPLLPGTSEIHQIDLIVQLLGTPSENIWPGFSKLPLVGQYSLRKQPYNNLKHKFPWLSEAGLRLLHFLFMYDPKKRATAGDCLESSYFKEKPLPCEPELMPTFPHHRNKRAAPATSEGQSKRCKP
Protocol Details: NanoBRET live-cell target engagement, CDK10-NanoLuc/Cyclin L2 in HEK-293
Assay Context: read-out: Inhibition at 10µM (%), CDK10/L2; average
Measure: inhibition at 10 µM (%)
Only the number, expressed in %, is required.

Which measured inhibition at 10 µM value corresponds to COc1ccc(F)cc1-c1cc(NC(=O)C2CCCNC2)ncc1Cl (centres unmarked) ?
83.1

What do you get for `CN1CC[C@H](c2c(O)cc(O)c3c(=O)cc(-c4ccccc4Cl)oc23)[C@H](O)C1` ?
38.5

What do you get for `CNC(=O)c1nn(C)c2c1C(C)(C)Cc1cnc(Nc3ccc(N4CCN(C)CC4)cc3)nc1-2` ?
30.6

What do you get for `CN1CCN(Cc2ccc(NC(=O)Nc3ccc(Oc4ccnc(N)n4)cc3)cc2C(F)(F)F)CC1` ?
79.8

What do you get for `COC1CN(C(=O)c2ccc3c(N)ncc(-c4ccc(-c5cnn(C)c5)cc4)c3n2)C1` ?
-11.6

What do you get for `NS(=O)(=O)c1ccc(Nc2nc(OCC3CCCCC3)c3nc[nH]c3n2)cc1` ?
64

What do you get for `CC(C)(C)c1nc(-c2cccc(NS(=O)(=O)c3c(F)cccc3F)c2F)c(-c2ccnc(N)n2)s1` ?
12.7

What do you get for `CC(C)c1cnn2c(NCc3ccccc3)cc(NC[C@H]3CCNC[C@@H]3O)nc12` ?
40.4

What do you get for `COc1ccccc1-c1cc(Nc2cccc(CS(N)(=O)=O)c2)ncn1` ?
6.6

What do you get for `CC(C)N1CCN(c2ccc(Nc3ncc4cc5n(c4n3)C3(CCCCC3)CNC5=O)nc2)CC1` ?
7.8

What do you get for `N#CCNC(=O)c1ccc(-c2ccnc(Nc3ccc(N4CCOCC4)cc3)n2)cc1` ?
16.4

What do you get for `CN1CCN(c2ccc(Nc3ncc4cc(C#N)c(=O)n(C5CCCC5)c4n3)cc2)CC1` ?
4.6

What do you get for `Cn1cc(-c2ccc(-c3cncc(Cl)c3N3CCC4(CCNC4=O)CC3)cc2)cn1` ?
6.5

What do you get for `CCc1cnn2c(NCc3ccc[n+]([O-])c3)cc(N3CCCC[C@H]3CCO)nc12` ?
74.8

* * *

Test Target: CDK18/Cyclin Y (Homo sapiens, UniProt Q07002)
Sequence (Q07002 whole entry): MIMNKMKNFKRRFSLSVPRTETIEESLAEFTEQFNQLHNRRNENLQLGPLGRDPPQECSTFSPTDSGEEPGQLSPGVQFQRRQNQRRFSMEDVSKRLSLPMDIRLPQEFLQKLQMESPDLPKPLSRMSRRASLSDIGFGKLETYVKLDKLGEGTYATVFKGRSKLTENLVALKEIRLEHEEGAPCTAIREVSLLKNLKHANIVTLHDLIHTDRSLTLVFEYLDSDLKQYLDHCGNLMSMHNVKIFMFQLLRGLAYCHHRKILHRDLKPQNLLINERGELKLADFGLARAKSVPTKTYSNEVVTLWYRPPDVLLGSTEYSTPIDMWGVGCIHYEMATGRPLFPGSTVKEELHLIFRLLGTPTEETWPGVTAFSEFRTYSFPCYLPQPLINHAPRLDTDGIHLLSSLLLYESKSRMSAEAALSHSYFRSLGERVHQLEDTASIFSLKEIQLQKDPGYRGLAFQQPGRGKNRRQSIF
Sequence (Q8ND76 whole entry partner): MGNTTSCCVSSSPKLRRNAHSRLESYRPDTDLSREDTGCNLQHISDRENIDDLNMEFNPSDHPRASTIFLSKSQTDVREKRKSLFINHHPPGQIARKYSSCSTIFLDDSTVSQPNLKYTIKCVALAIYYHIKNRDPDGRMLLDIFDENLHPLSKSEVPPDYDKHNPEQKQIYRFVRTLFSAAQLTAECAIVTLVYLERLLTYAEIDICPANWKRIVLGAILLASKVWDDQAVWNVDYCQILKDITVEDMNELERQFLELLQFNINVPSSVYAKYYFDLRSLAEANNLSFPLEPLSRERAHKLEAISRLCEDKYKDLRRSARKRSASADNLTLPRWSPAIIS
Protocol Details: NanoBRET live-cell target engagement, CDK18-NanoLuc/Cyclin Y in HEK-293
Type: binding
Assay Context: CDK18/Y; 10µM; read-out: Inhibition at 10µM (%) Replicate 1
Measure: inhibition at 10 µM (%)
Only the number, expressed in %, is required.

Which measured inhibition at 10 µM value corresponds to `COc1cc(F)ccc1-c1ncnc(Nc2cccc(C[S@](C)(=N)=O)c2)n1` ?
17.3

What do you get for `CCCCOc1c(C(=O)c2c(F)cc(C)cc2F)c[nH]c2nncc1-2` ?
86.5

What do you get for `Cc1ncc(-c2ccnc(Nc3ccc(S(C)(=O)=O)cc3)n2)n1C(C)C` ?
84.4

What do you get for COc1cc(F)ccc1-c1cc(Nc2cc(CS(C)(=N)=O)ccn2)ncc1F (centres unmarked) ?
38.7

What do you get for `CCN1CCN(Cc2ccc(Nc3ncc(F)c(-c4cc(F)c5nc(C)n(C(C)C)c5c4)n3)nc2)CC1` ?
73.2
